Data origin: patent US5877165A

# assay-remarks: Boron biodistribution, mice with KHJJ mammary carcinomas (Examples 4-7, Table 1)
# Type: in vivo, BALB/c mice
# assay-context: mouse, brain, ip, 900 mg/kg, 6 hr after last i.p. injection; BPA 900 or NiTCP 160 μg/gbw; median (range); read-out: Boron Concentration: Brain
value-type: concentration at 6 h (ng/g)
The reply should be a number in ng/g, with the unit left off.

Name the recorded concentration at 6 h for N[C@@H](Cc1ccc(B(O)O)cc1)C(=O)O .
7200

----------
# assay-remarks: Experiment IV: boron concentrations in tissues, mice bearing EMT-6 tumors (Table 10)
# Format: in vivo, BALB/c mice
# assay-context: mouse, brain, ip, 837 mg/kg; BPA fructose complex, 6 hr; tumor model not restated; read-out: Brain boron, median
value-type: concentration at 6 h (ng/g)
The reply should be a number in ng/g, with the unit left off.

Name the recorded concentration at 6 h for N[C@@H](Cc1ccc(B(O)O)cc1)C(=O)O .
8000

----------
# assay-remarks: Boron biodistribution, mice with KHJJ mammary carcinomas (Examples 4-7, Table 1)
# Format: in vivo, BALB/c mice
# assay-context: mouse, tumor, ip, 900 mg/kg, 6 hr after last i.p. injection; BPA 900 or NiTCP 160 μg/gbw; median (range); read-out: Boron Concentration: Tumor
# Description: Female BALB/c mice (Taconic Farms, Germantown, N.Y.) (20-25 g) were implanted with either KHJJ or EMT-6 tumors. For KHJJ tumors, 1-3 mm^3 tumor fragments were implanted subcutaneously (s.c.) in the dorsal thorax of each mouse using an 18-gauge trocar. For EMT-6 tumors, 2.5×10^5 cells were implanted similarly using a 27-gauge needle. EMT-6 tumor cells were grown alternately in vivo and in vitro. Single-cell suspensions were prepared from mouse-grown tumors by trypsinization. […]
value-type: concentration at 6 h

Name the recorded concentration at 6 h for N[C@@H](Cc1ccc(B(O)O)cc1)C(=O)O [BPA, p-boronophenylalanine] .
13800 ng/g

----------
# assay-remarks: Boron biodistribution, mice with KHJJ mammary carcinomas (Examples 4-7, Table 1)
# Assay type: in vivo, BALB/c mice
# assay-context: mouse, blood, ip, 900 mg/kg, 6 hr after last i.p. injection; BPA 900 or NiTCP 160 μg/gbw; median (range); read-out: Boron Concentration: Blood
value-type: concentration at 6 h (ng/g)
The reply should be a number in ng/g, with the unit left off.

Name the recorded concentration at 6 h for N[C@@H](Cc1ccc(B(O)O)cc1)C(=O)O [BPA, p-boronophenylalanine] .
4600
